The measured values listed here are drawn from patent US5248674A.

Test: In vivo study - plasma AZT level by percutaneous (oleic acid pretreated skin) and oral administration of AZT
Design: species or system rat (Wistar strain, male)
Conditions: plasma; oral, 0.6 mg AZT in 0.5 ml water, rat; 0.5 h
measurement kind: concentration at 0.5 h (µM)
The reply should contain only the number, in µM.

## Input For the compound Cc1cn([C@H]2C[C@H](N=[N+]=[N-])[C@@H](CO)O2)c(=O)[nH]c1=O [AZT, 3'-azide-3'-deoxythymidine] , give its reported concentration at 0.5 h.
## Output 3.1

###

Test: In vivo study - plasma AZT level by percutaneous (oleic acid pretreated skin) and oral administration of AZT
Parameters: species or system rat (Wistar strain, male)
Details: plasma, topical or ocular; percutaneous, 1 ml 0.5% AZT + 10% oleic acid, 4.9 cm^2, rat; 0.5 h
measurement kind: concentration at 0.5 h (nM)
The reply should contain only the number, in nM.

## Input For the compound Cc1cn([C@H]2C[C@H](N=[N+]=[N-])[C@@H](CO)O2)c(=O)[nH]c1=O [AZT, 3'-azide-3'-deoxythymidine] , give its reported concentration at 0.5 h.
## Output 200
